Source listed as patent US8916575B2.

Target: human TLR8 (Homo sapiens)
Construct: expressed in transfected cells; host or cells: HEK293
Sequence (Q9NR97 27-1041): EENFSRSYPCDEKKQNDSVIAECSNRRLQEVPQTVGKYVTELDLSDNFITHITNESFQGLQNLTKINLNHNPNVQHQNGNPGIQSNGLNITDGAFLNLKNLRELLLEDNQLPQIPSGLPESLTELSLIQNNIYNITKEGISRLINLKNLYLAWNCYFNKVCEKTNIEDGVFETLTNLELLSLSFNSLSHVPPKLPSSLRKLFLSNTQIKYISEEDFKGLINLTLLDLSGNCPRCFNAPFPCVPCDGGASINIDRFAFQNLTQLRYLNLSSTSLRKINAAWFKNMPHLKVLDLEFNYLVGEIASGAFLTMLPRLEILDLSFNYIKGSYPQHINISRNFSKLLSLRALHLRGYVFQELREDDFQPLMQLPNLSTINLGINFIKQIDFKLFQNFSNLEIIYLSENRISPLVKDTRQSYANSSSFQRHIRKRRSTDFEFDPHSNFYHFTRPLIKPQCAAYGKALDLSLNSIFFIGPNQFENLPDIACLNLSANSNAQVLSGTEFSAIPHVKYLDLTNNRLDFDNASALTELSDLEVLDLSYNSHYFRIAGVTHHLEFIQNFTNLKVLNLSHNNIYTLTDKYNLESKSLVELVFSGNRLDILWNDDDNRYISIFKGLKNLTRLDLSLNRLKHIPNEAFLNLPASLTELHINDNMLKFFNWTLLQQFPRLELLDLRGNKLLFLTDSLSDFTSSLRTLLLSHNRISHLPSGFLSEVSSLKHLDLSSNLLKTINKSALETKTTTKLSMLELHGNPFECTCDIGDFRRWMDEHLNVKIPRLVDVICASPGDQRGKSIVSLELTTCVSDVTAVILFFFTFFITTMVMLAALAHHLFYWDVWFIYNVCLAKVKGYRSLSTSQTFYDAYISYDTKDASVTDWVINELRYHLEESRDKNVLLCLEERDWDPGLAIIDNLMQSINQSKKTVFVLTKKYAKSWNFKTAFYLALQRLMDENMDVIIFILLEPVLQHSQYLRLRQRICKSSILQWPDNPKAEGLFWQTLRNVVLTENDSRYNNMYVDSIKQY
Assay: TLR8 wild type NFκB-luc cellular reporter assay
Assay type: cell-based
Design: unit not given here
Settings: HEK293 NFκB-luc reporter, 6 hours incubation; second part of table

structureSmilesString: CC[C@H](C)[C@@H](CO)Nc1nc(N)nc2ccc(F)cc12
TLR8-wt (LEC): 0.33
//
structureSmilesString: CCCCNc1nc(N)nc2cc(OC)c(OCc3ccccc3)cc12
TLR8-wt (LEC): 2.22
//
structureSmilesString: CCC[C@@H](CO)Nc1nc(N)nc2cc(OC)ccc12
TLR8-wt (LEC): 0.04
//
structureSmilesString: CCCC[C@@H](CO)Nc1nc(N)nc2cccc(F)c12
TLR8-wt (LEC): 0.01
//
structureSmilesString: CCCCNc1nc(N)nc2cccc(OCCOC)c12
TLR8-wt (LEC): 0.17
